Tested on: Human epidermal keratinocyte (HEK)
Assay: Cytotoxicity test (cell survival), MTT assay, HEK
Format: cell-based
Settings: 0.1 mM, 24 hours, 570 nm
What MTT absorbance (OD) was measured for each of the following?
Numbers only, in OD.

Study these solved cases before continuing.
{"Compound": "C=CCCCOC(=O)CCC(=O)CN", "Recorded Number": 2.98}
{"Compound": "C=CCCCCOC(=O)CCC(=O)CN", "Recorded Number": 3.18}

Go through the items and report each one's MTT absorbance (OD).
1. NCC(=O)CCC(=O)O
2. COC(=O)CCC(=O)CN [ALA-1, 5-Aminolevulinic acid methyl ester, reference compound]
3. C=CCCOC(=O)CCC(=O)CN

1. 3.457
2. 3.313
3. 3.413
